B1: CPEB3 Ribozyme (parent)
chain: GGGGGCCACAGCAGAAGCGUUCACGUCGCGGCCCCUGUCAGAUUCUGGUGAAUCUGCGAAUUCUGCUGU

variants of: B1; experiment: self-cleavage, relative activity (ratio to wild type); higher = more cleavage; co-transcriptional
Would you mind telling me the reported self-cleavage of each entry?
Lab note: jot the number down without any unit.

QUERY: Reported self-cleavage, variant A16G A51G : ____
RESULT: 0.894

QUERY: Which self-cleavage is reported for this variant? C32A A40U
RESULT: 0.376

QUERY: GET /values?readout=self-cleavage&item= G3C G48C
RESULT: 0.105

QUERY: Record request: self-cleavage value, item G41U U46A
RESULT: 0.947

QUERY: Bench note: what self-cleavage did C22U C27U show?
RESULT: 0.164

Values from the RNAGym collection of RNA variant scans (doi:10.7554/elife.80360)
